- targetDesc: T1, soluble recombinant HLA-DR2 molecules (MHC class II HLA-DR2 protein) (human)
- T1 construct: Soluble, empty protein from Drosophila S2 cells, captured on plates by antibody LB3.1; also called MHC class II DR2 protein; recombinant HLA-DR2 protein
- procedureSummary: competition ELISA on soluble HLA-DR2; competitor biotinylated Cop 1 (1.5 µM)
pIC50: −log10 of the molar value.
measurementName: pIC50

Example results:
1. AAEKYAAYAAAAAAA [synthetic peptide #55] :: < 3.00
2. AAEAYKAYKAAAAAA [synthetic peptide #94] :: < 3.82
3. EAKAYAAYAAAAAAA [synthetic peptide #75] :: < 3.00
4. AEEAYKAYAAAAAAA [synthetic peptide #53] :: < 3.82
5. AAEKYEAYAAAAAAA [synthetic peptide #69] :: < 3.00
6. AKEAAAAYAAAAAAA [synthetic peptide #45] :: < 3.82
7. AAKEYAAYAAAAAAA [synthetic peptide #58] :: < 3.00
8. EAEKYAAYAAAAAAA [synthetic peptide #71] :: < 3.00
9. AKKAAEAYAAAAAAA [synthetic peptide #50] :: 4.40
10. AKAAAAEYAAAAAAA [synthetic peptide #51] :: < 3.00

**Query** Quick one: pIC50 for AEKEYAAAAAAAAAA [synthetic peptide #40] ?
**Result** < 3.00

**Query** Which pIC50 is reported for this binder? EKEAAAAYAAAAAAA [synthetic peptide #46]
**Result** < 3.00

**Query** Which measured pIC50 value corresponds to AEAKYEAYAAAAAAA [synthetic peptide #67] ?
**Result** < 3.00

**Query** Form field: reported pIC50 of EEAAYAAYKAAAAAA [synthetic peptide #90]
**Result** < 3.00

**Query** Item AEEAYAAYKAAAAAA [synthetic peptide #80] has what recorded pIC50?
**Result** < 3.00
